Assay read-out IC50 on Wee1-like protein kinase (Homo sapiens); records merged from the literature.

Before answering, review these 7 worked examples.
CS(C)(=O)=Nc1cccc(-n2ncc3cnc(Nc4ccc5c(c4)CNCC5)nc32)n1 = 1 to 10 nM
CN1CN(c2c(Cl)cccc2Cl)C(=O)c2cnc(Nc3ccc(N4CCN(CCO)CC4)cc3)nc21 = 10 to 100 nM
CN1CCC(Nc2cccc(Nc3ncc4c(n3)N(C)CN(c3c(Cl)cccc3Cl)C4=O)c2)CC1 = 10 to 100 nM
CN1CCC2(CC1)CCN(c1ccc(Nc3ncc4cnn(-c5cccc(N=S(C)(C)=O)n5)c4n3)cc1)CC2 = 1 to 10 nM
CN1CN(c2c(Cl)cccc2Cl)C(=O)c2cnc(Nc3ccc(N4CCN(C(=O)CN)CC4)cc3)nc21 = ≤ 10 nM
O=C1c2cnc(Nc3ccc(N4CCNCC4)c(CO)c3)nc2OCN1c1c(Cl)cccc1Cl = 49 nM
CCn1c(=O)c2cnc(Nc3ccc4c(c3)CNCC4(C)C)nc2n1-c1cccc(C(C)(C)O)n1 = 1.5 nM

# returns recorded IC50 (system: Wee1-like protein kinase (Homo sapiens)) for CCn1c(=O)c2cnc(Nc3ccc4c(c3)CN(C)CC4(C)C)nc2n1-c1cccc(C(C)(C)O)n1
4.5 nM

* * *

Assay read-out IC50 on Wee1-like protein kinase (Homo sapiens); records merged from the literature.
Entry rule: numbers only, all in nM.

Before answering, review these 4 worked examples.
O=C1NCCc2ccc(Nc3ncc4c(n3)OCN(c3c(Cl)cccc3Cl)C4=O)cc21 = 607
CCn1c(=O)c2cnc(Nc3ccc4c(c3)CN(C(=O)CO)CC4(C)C)nc2n1-c1cccc(C(C)(C)O)n1 = 1
CCn1c(=O)c2cnc(Nc3ccc4c(c3)CNC4)nc2n1-c1cccc(C(C)(C)C)n1 = 4
CN(C)CC(=O)N1CCc2ccc(Nc3ncc4c(n3)OCN(c3c(Cl)cccc3Cl)C4=O)cc2C1 = 225

Shift focus to the following entry.
IC50 lookup needed for COC(=O)N1CCc2cc(Nc3ncc4c(=O)n(C(C)C)n(-c5ccnc(C(C)(C)C)c5)c4n3)ccc2C1 , thanks.
343

* * *

Assay read-out IC50 on Wee1-like protein kinase (Homo sapiens); records merged from the literature.
Entry rule: numbers only, all in µM.

Before answering, review these 3 worked examples.
O=C1c2cnc(Nc3ccc4c(c3)CNCC43CC3)nc2OCN1c1c(Cl)cccc1Cl = 0.011
CC(C)n1c(=O)c2cnc(Nc3ccc4c(c3)CC(N(C)C)C4)nc2n1-c1ccnc(C(C)(C)C)c1 (stereo not shown) = 0.008
CCCc1cc2cnc(Nc3ccc(N4CCN(C)CC4)cn3)nc2n1-c1cccc(N=S(C)(C)=O)n1 = 0.00069

# returns recorded IC50 (system: Wee1-like protein kinase (Homo sapiens)) for CC(C)n1c(=O)c2cnc(Nc3ccc4c(c3)CCNC4)nc2n1-c1ccnc(C(C)(C)C)c1
0.006

* * *

Assay read-out pIC50 on Wee1-like protein kinase (Homo sapiens); records merged from the literature.
Here pIC50 is given on a logarithmic scale as minus log10 of the concentration in mol/L.

Before answering, review these 4 worked examples.
CCn1c(=O)c2cnc(Nc3ccc4c(c3)CNCC4)nc2n1-c1cccc(C2(C#N)CC2)n1 = 8.40
C=CCn1c(=O)c2cnc(Nc3ccc4c(c3)CCNC4)nc2n1-c1ccnc(C(C)(C)C)c1 = 8.30
C=CCn1c(=O)c2cnc(Nc3ccc(C4CCC(N(C)C(=O)C5CC5)CC4)cc3)nc2n1-c1cccc(C2(O)COC2)n1 (stereo not shown) = 8.48
C=CCn1c(=O)c2cnc(Nc3ccc4c(c3)CCNC4)nc2n1-c1cccc(C(C)(C)O)n1 = 9.00

Shift focus to the following entry.
# returns recorded pIC50 (system: Wee1-like protein kinase (Homo sapiens)) for CCn1c(=O)c2cnc(Nc3ccc4c(c3)CNCC4)nc2n1-c1cccc(N2CCCC2=O)n1
8.30

* * *

Assay read-out IC50 on Wee1-like protein kinase (Homo sapiens); records merged from the literature.

C=CCn1c(=O)c2cnc(Nc3ccc(C4CCC(N5CCCC5)CC4)cc3)nc2n1-c1cccc(C(C)(C)O)n1 (single isomer, unassigned) = 0.35 nM
C=CCn1c(=O)c2cnc(Nc3ccc(C4CC(N(C)C)C4)cc3)nc2n1-c1cccc(C(C)(C)O)n1 (stereo not drawn) = 2.05 nM

# returns recorded IC50 (system: Wee1-like protein kinase (Homo sapiens)) for CN1CCC(c2ccc(Nc3ncc4c(n3)OCN(c3c(Cl)cccc3Cl)C4=O)cc2CO)CC1
25 nM

# returns recorded IC50 (system: Wee1-like protein kinase (Homo sapiens)) for CC(C)n1c(=O)c2cnc(Nc3ccc4c(c3)CCNC4)nc2n1-c1ccnc(C(C)(C)F)c1
15 nM

# returns recorded IC50 (system: Wee1-like protein kinase (Homo sapiens)) for CNCc1cc(Nc2ncc3c(n2)N(C)CN(c2c(Cl)cccc2Cl)C3=O)ccc1-c1cnn(C)c1
10 to 100 nM

* * *

Assay read-out IC50 on Wee1-like protein kinase (Homo sapiens, UniProt P30291); records merged from the literature.
Entry rule: numbers only, all in nM.

# returns recorded IC50 (system: Wee1-like protein kinase (Homo sapiens, UniProt P30291)) for CC(C)n1c(=O)c2cnc(Nc3ccc4c(c3)CCNC4)nc2n1-c1ccc(F)cn1
90

# returns recorded IC50 (system: Wee1-like protein kinase (Homo sapiens, UniProt P30291)) for CC1(C)CNCc2cc(Nc3ncc4c(n3)OCN(c3c(Cl)cccc3Cl)C4=O)ccc21
11

# returns recorded IC50 (system: Wee1-like protein kinase (Homo sapiens, UniProt P30291)) for CN(C)CCN(C)c1ccc(Nc2ncc3c(F)c(C4CC4)n(-c4cccc(N=S(C)(C)=O)n4)c3n2)cc1
1

# returns recorded IC50 (system: Wee1-like protein kinase (Homo sapiens, UniProt P30291)) for CC(C)n1c(=O)c2cnc(Nc3ccc4c(c3)CCNC4(C)C)nc2n1-c1cccc(N(C)S(C)(=O)=O)n1
6

* * *

Assay read-out pIC50 on Wee1-like protein kinase (Homo sapiens); records merged from the literature.
pIC50: −log10 of the molar value.
# label = t if pIC50 >= 8 else f

Solved cases (8 shown):
CC(C)n1c(=O)c2cnc(Nc3ccc4c(c3)CNCC4)nc2n1-c1csc(N2CCOCC2)n1 = f
CC(C)n1c(=O)c2cnc(Nc3ccc4c(c3)CCNC4)nc2n1-c1csc(C2CC2)n1 = f
CCCc1cc2cnc(Nc3ccc(N4CCN(CCN(C)C)CC4)cc3)nc2n1-c1cccc(C(C)(C)O)n1 = t
C=CCn1c(=O)c2cnc(Nc3ccc(C4CCC(N5CCC5)CC4)cc3)nc2n1-c1cccc(C(C)(C)O)n1 (single isomer, unassigned) = t
C=CCn1c(=O)c2cnc(Nc3ccc4c(c3)CN(C(C)=O)CC4)nc2n1-c1cccc(C(C)(C)O)n1 = t
O=C1c2cnc(Nc3ccc4c(c3)NCCN4)nc2OCN1c1c(Cl)cccc1Cl = f
COC(=O)CN1CCN(c2ccc(Nc3ncc4cc(C5CC5)n(-c5cccc(N=S(C)(C)=O)n5)c4n3)cc2)CC1 = t
CC(C)(O)C(=O)N1Cc2cc(Nc3ncc4c(n3)OCN(c3c(Cl)cccc3Cl)C4=O)ccc2C(C)(C)C1 = f

Has O=C1c2cnc(Nc3ccc4c(c3)CN(CC(F)F)CC4)nc2OCN1c1c(Cl)cccc1Cl a recorded pIC50 greater than or equal to 8?
f

Has C=CCn1c(=O)c2cnc(Nc3ccc(C4CCC(C(=O)O)CC4)cc3)nc2n1-c1cccc(C2(O)COC2)n1 (stereo not drawn) a recorded pIC50 greater than or equal to 8?
t

Has CC1(C)CN(C(=O)CO)Cc2cc(Nc3ncc4c(n3)OCN(c3c(Cl)cccc3Cl)C4=O)ccc21 a recorded pIC50 greater than or equal to 8?
f

* * *

Assay read-out pIC50 on Wee1-like protein kinase (Homo sapiens); records merged from the literature.
Here pIC50 is given on a logarithmic scale as minus log10 of the concentration in mol/L.

pIC50 lookup needed for CCn1c(=O)c2cnc(Nc3ccc4c(c3)CNCC43CC3)nc2n1-c1cccc(C(C)(C)O)n1 , thanks.
7.82

pIC50 lookup needed for C=CCn1c(=O)c2cnc(Nc3ccc(C4CCC(N(C)C)CC4)cc3)nc2n1-c1cccc(C(C)(C)O)n1 (single isomer, unassigned) , thanks.
8.68

pIC50 lookup needed for CC(C)n1c(=O)c2cnc(Nc3ccc4c(c3)CCNC4)nc2n1-c1cccc(C(C)(C)C)c1 , thanks.
8.70

pIC50 lookup needed for CCc1cc2cnc(Nc3ccc(N4CCN(C)CC4)cc3)nc2n1-c1cccc(C(C)(C)O)n1 , thanks.
9.23

* * *

Assay read-out pIC50 on Wee1-like protein kinase (Homo sapiens, UniProt P30291); records merged from the literature.
Here pIC50 is given on a logarithmic scale as minus log10 of the concentration in mol/L.

Before answering, review these 3 worked examples.
CC(C)(C)c1cc(-n2c3nc(Nc4ccc5c(c4)CNCC5(C)C)ncc3c(=O)n2C2CC2)ccn1 = 7.60
CCn1c(=O)c2cnc(Nc3ccc4c(c3)CNCC4)nc2n1-c1ccccn1 = 7.74
O=C1c2cnc(Nc3ccc(N4CCCNCC4)cc3)nc2OCN1c1c(Cl)cccc1Cl = 6.96

# returns recorded pIC50 (system: Wee1-like protein kinase (Homo sapiens, UniProt P30291)) for O=C1c2cnc(Nc3ccc(N4CCNC(CO)C4)cc3)nc2OCN1c1c(Cl)cccc1Cl (stereo not drawn)
7.33

# returns recorded pIC50 (system: Wee1-like protein kinase (Homo sapiens, UniProt P30291)) for CN(C)CC(=O)N1CCc2cc(Nc3ncc4c(n3)OCN(c3c(Cl)cccc3Cl)C4=O)ccc2C1(C)C
6.90

# returns recorded pIC50 (system: Wee1-like protein kinase (Homo sapiens, UniProt P30291)) for CN1CCN(c2ccc(Nc3ncc4c(n3)OCN(c3c(Cl)cccc3Cl)C4=O)cc2)CC1
7.25

# returns recorded pIC50 (system: Wee1-like protein kinase (Homo sapiens, UniProt P30291)) for CC(C)n1c(=O)c2cnc(Nc3ccc4c(c3)CCNC4)nc2n1-c1ccn(C2CC2)n1
7.28

# returns recorded pIC50 (system: Wee1-like protein kinase (Homo sapiens, UniProt P30291)) for C=CCn1c(=O)c2cnc(Nc3ccc(C4CCC(N(C)C)CC4)cc3)nc2n1-c1cccc(C2(O)COC2)n1 (single isomer, unassigned)
8.77

# returns recorded pIC50 (system: Wee1-like protein kinase (Homo sapiens, UniProt P30291)) for CCn1c(=O)c2cnc(Nc3ccc4c(c3)CNCC4)nc2n1-c1cccc(NC)n1
8.00

# returns recorded pIC50 (system: Wee1-like protein kinase (Homo sapiens, UniProt P30291)) for CC(C)n1c(=O)c2cnc(Nc3ccc4c(c3)CNCC4)nc2n1-c1ccc(F)c(C(C)(C)O)c1
7.62

# returns recorded pIC50 (system: Wee1-like protein kinase (Homo sapiens, UniProt P30291)) for CS(C)(=O)=Nc1cccc(-n2c(C3CC3)c(F)c3cnc(Nc4ccc(N5C[C@H]6CC[C@@H](C5)N6)cc4)nc32)n1
8.93

# returns recorded pIC50 (system: Wee1-like protein kinase (Homo sapiens, UniProt P30291)) for CC(C)n1c(=O)c2cnc(Nc3ccc4c(c3)CCNC4)nc2n1-c1cccc(C(C)(C)C)n1
8.52

# returns recorded pIC50 (system: Wee1-like protein kinase (Homo sapiens, UniProt P30291)) for CN(C)C1CCN(c2ccc(Nc3ncc4c(n3)SCN(c3c(Cl)cccc3Cl)C4=O)cc2C#N)CC1
6.29

# returns recorded pIC50 (system: Wee1-like protein kinase (Homo sapiens, UniProt P30291)) for C=C(C)c1cc2cnc(Nc3ccc(N4CCN(C)CC4)cc3)nc2n1-c1cccc(N=S(C)(C)=O)n1
9.17

# returns recorded pIC50 (system: Wee1-like protein kinase (Homo sapiens, UniProt P30291)) for CCn1c(=O)c2cnc(Nc3ccc4c(c3)CNCC4)nc2n1-c1nc(C(C)(C)C)cs1
8.40

# returns recorded pIC50 (system: Wee1-like protein kinase (Homo sapiens, UniProt P30291)) for C=CCn1c(=O)c2cnc(Nc3ccc(C4CCC(C(=O)O)CC4)cc3)nc2n1-c1cccc(C(C)(C)O)n1 (stereo not drawn)
8.15

# returns recorded pIC50 (system: Wee1-like protein kinase (Homo sapiens, UniProt P30291)) for COc1cc(Nc2ncc3cc(C4CC4)n(-c4cccc(N=S(C)(C)=O)n4)c3n2)ccc1N1CCN(C)CC1
9.52

# returns recorded pIC50 (system: Wee1-like protein kinase (Homo sapiens, UniProt P30291)) for CC1(C)NCCc2cc(Nc3ncc4c(n3)SCN(c3c(Cl)cccc3Cl)C4=O)ccc21
7.21

# returns recorded pIC50 (system: Wee1-like protein kinase (Homo sapiens, UniProt P30291)) for CC(C)n1c(=O)c2cnc(Nc3ccc4c(c3)CCNC4)nc2n1-c1nc(C(C)(C)C#N)ccc1F
7.89

# returns recorded pIC50 (system: Wee1-like protein kinase (Homo sapiens, UniProt P30291)) for CN(C)C1CCN(c2ccc(Nc3ncc4c(n3)SCN(c3c(Cl)cccc3Cl)C4=O)cc2)CC1
6.56

# returns recorded pIC50 (system: Wee1-like protein kinase (Homo sapiens, UniProt P30291)) for CN1CCN(c2ccc(Nc3ncc4c(n3)OCN(c3c(F)cccc3Cl)C4=O)cc2)CC1
7.17
